- Run Description: Cytotoxicity against monkey LLC-MK2 cells incubated for 72 hrs by MTT assay
- Assay type: toxicity, cell-based, Macaca mulatta
- Experimental Context: rhesus monkey
Entries and their CC50 at 72 h
Readout Label: CC50 at 72 h

INSERT INTO assay_data (smiles_record, measurement) VALUES
  ('O=[N+]([O-])c1nccn1Cc1cc(-c2ccccc2)no1', '> 50 µM'),
  ('N#Cc1cccc(-c2cc(Cn3ccnc3[N+](=O)[O-])on2)c1', '> 50 µM'),
  ('N#Cc1ccc(-c2cc(Cn3ccnc3[N+](=O)[O-])on2)cc1', '> 50 µM'),
  ('O=[N+]([O-])c1nccn1Cc1cc(-c2ccc(OC(F)(F)F)cc2)no1', '> 50 µM'),
  ('O=[N+]([O-])c1ccc(-c2cc(Cn3ccnc3[N+](=O)[O-])on2)cc1', '46.1 µM');
